target: Adenosine receptor A1 (Homo sapiens) (UniProt P30542)
Sequence (whole entry): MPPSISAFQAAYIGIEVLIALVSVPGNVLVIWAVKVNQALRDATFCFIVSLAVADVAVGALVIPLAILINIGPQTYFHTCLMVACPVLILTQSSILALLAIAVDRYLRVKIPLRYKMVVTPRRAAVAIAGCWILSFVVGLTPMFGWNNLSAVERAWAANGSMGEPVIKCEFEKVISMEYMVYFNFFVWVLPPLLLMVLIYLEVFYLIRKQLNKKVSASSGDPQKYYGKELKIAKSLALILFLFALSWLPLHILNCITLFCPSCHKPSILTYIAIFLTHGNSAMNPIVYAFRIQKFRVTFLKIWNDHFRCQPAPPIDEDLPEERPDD
experiment: In vitro allosteric enhancer (AE) activity for adenosine A1 receptor at 50 uM
Doc: threshold 20% (exclusive). Items with Alloste ic enhan er (AE) beneath it return 1.0; others return 0.0.

>  <smiles entry>
Nc1nc2c(s1)Cc1cc(-c3ccc(O)cc3)ccc1-2

>  <target>
Adenosine receptor A1 (Homo sapiens) (UniProt P30542)

>  <assigned class>
1.0

$$$$
>  <smiles entry>
COc1cc(-c2ccc3c(c2)Cc2sc(N)nc2-3)cc(OC)c1OC

>  <target>
Adenosine receptor A1 (Homo sapiens) (UniProt P30542)

>  <assigned class>
0.0

$$$$
>  <smiles entry>
Nc1nc2c(s1)Cc1cc(-c3ccccc3Cl)ccc1-2

>  <target>
Adenosine receptor A1 (Homo sapiens) (UniProt P30542)

>  <assigned class>
0.0

$$$$
>  <smiles entry>
Nc1nc2c(s1)Cc1cc(-c3ccc(F)cc3)ccc1-2

>  <target>
Adenosine receptor A1 (Homo sapiens) (UniProt P30542)

>  <assigned class>
0.0

$$$$
>  <smiles entry>
COc1ccc(-c2ccc3c(c2)Cc2sc(N)nc2-3)c(OC)c1

>  <target>
Adenosine receptor A1 (Homo sapiens) (UniProt P30542)

>  <assigned class>
0.0

$$$$

Then there is this compound:
*Q* Criterion: Alloste ic enhan er (AE) strictly below 20%. Is it met by Nc1nc2c(s1)Cc1cc(-c3ccccc3[N+](=O)[O-])ccc1-2 ?
*A* 0.0

====

target: Adenosine receptor A3 (Homo sapiens) (UniProt P0DMS8)
Sequence (P0DMS8 whole entry): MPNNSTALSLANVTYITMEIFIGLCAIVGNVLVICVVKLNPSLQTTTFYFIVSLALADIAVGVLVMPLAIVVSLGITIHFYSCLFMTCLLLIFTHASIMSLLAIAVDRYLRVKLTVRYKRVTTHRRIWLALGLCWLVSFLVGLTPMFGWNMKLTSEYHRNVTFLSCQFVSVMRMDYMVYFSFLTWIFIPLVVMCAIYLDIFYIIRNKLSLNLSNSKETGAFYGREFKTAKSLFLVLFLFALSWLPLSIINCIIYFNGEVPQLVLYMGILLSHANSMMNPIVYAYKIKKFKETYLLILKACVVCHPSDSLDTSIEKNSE
experiment: In vitro allosteric enhancer (AE) activity for adenosine A3 receptor at 50 uM
Hi, to clarify the labels: rule met covers Alloste ic enhan er (AE) from 1% upward, rule not met covers anything below 1%.

Example entries begin here.
>  <smiles entry>
Nc1nc2c(s1)Cc1cc(-c3ccc4ccccc4c3)ccc1-2

>  <assigned class>
rule met

$$$$
>  <smiles entry>
Nc1nc2c(s1)Cc1cc(-c3ccccc3C(F)(F)F)ccc1-2

>  <assigned class>
rule met

$$$$
>  <smiles entry>
CN(C)c1ccc(-c2ccc3c(c2)Cc2sc(N)nc2-3)cc1

>  <assigned class>
rule met

$$$$

*Q* Say whether Nc1nc2c(s1)Cc1cc(-c3cccc(C(F)(F)F)c3)ccc1-2 shows Alloste ic enhan er (AE) of 1% or more.
*A* rule not met

*Q* Say whether Nc1nc2c(s1)Cc1cc(-c3cccc4ccccc34)ccc1-2 shows Alloste ic enhan er (AE) of 1% or more.
*A* rule met

*Q* Say whether Cc1ccc(C)c(-c2ccc3c(c2)Cc2sc(N)nc2-3)c1 shows Alloste ic enhan er (AE) of 1% or more.
*A* rule not met

*Q* Say whether COc1ccc(-c2ccc3c(c2)Cc2sc(N)nc2-3)c(OC)c1 shows Alloste ic enhan er (AE) of 1% or more.
*A* rule met

*Q* Say whether Nc1nc2c(s1)Cc1cc(-c3ccccc3F)ccc1-2 shows Alloste ic enhan er (AE) of 1% or more.
*A* rule met

*Q* Say whether COc1cc(-c2ccc3c(c2)Cc2sc(N)nc2-3)cc(OC)c1OC shows Alloste ic enhan er (AE) of 1% or more.
*A* rule not met
